Assay read-out MIC; system under study: S. aureus IID 670 (Terajima).

INSERT INTO measurements (molecule, parameter_measured, obs_value) VALUES
  ('Cc1c(N2CCC(N)C2)c(F)cc2c(=O)c(C(=O)O)cn(C3CC3)c12 (stereo not drawn) [Exp. 18]', 'MIC', '0.05 µg/mL'),
  ('CCn1cc(C(=O)O)c(=O)c2cc(F)c(N3CCC(N)C3)c(C)c21 (stereo not drawn) [Exp. 25]', 'MIC', '0.2 µg/mL'),
  ('Cc1c(N2CCNCC2)c(F)cc2c(=O)c(C(=O)O)cn(C3CC3)c12 [Exp. 19]', 'MIC', '0.2 µg/mL'),
  ('Cc1c(N2C[C@@H](C)[C@@H](N)C2)c(F)cc2c(=O)c(C(=O)O)cn(C3CC3)c12 (relative stereo) [Ex. 28]', 'MIC', '0.025 µg/mL'),
  ('Cc1c(N2C[C@@H](C)[C@H](N)C2)c(F)cc2c(=O)c(C(=O)O)cn(C3CC3)c12 (relative stereo) [Ex. 27]', 'MIC', '0.025 µg/mL');

Consider the additional molecule presented here.
Test item O=C(O)c1cn(C2CC2)c2cc(N3CCNCC3)c(F)cc2c1=O [CPFX, ciprofloxacin, reference compound] ; S. aureus IID 670 (Terajima); reported MIC was 0.2 µg/mL
